pIC50 by entry:
Molecular target: CPS1 (Homo sapiens, UniProt P31327)
Construct: The full length, human CPS1 gene was cloned into pFastBac HTA; His6 (from the pFastBac HTA vector); made in house; host or cells: SF21 insect cells (baculovirus, Bac-to-bac)
Sequence (P31327 39-1500): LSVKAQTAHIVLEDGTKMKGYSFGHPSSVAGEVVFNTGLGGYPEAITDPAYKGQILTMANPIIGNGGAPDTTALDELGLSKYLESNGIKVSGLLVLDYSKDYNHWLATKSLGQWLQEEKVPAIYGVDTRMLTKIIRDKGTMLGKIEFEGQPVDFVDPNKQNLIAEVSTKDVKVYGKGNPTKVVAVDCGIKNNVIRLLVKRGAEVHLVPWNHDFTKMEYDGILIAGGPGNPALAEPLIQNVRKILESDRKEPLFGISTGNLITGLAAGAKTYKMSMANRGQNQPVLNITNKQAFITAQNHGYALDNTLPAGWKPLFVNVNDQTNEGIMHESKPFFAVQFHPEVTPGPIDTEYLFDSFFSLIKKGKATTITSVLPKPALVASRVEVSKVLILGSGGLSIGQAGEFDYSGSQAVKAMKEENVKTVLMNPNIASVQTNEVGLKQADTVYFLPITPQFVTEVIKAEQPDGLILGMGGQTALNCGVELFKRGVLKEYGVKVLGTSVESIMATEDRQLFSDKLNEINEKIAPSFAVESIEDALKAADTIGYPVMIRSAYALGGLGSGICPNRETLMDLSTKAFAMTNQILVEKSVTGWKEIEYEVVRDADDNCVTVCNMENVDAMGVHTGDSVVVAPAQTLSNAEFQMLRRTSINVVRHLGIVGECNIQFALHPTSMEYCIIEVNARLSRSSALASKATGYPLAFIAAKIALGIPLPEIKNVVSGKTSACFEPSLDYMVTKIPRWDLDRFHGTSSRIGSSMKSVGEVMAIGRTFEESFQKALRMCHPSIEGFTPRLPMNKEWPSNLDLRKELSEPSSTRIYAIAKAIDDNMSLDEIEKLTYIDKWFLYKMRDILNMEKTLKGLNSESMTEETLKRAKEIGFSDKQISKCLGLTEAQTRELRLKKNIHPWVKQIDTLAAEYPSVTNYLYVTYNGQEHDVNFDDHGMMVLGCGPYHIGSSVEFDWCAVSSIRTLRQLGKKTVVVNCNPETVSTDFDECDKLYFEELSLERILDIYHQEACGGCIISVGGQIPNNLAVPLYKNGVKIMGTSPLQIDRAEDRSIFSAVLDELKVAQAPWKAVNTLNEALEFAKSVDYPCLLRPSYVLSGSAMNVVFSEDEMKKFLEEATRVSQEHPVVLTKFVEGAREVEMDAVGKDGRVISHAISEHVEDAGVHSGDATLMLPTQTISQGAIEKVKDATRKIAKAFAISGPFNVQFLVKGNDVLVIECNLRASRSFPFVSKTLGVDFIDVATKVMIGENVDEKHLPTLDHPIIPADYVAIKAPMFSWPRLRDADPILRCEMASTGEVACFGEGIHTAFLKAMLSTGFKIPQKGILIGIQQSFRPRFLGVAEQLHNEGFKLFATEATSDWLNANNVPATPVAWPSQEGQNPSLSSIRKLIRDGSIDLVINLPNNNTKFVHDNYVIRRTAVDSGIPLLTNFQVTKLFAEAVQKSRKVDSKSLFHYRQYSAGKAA
Experiment: ADP-Glo endpoint assay measuring the ATPase activity of CPS1
Format: biochemical
Conditions: geometric mean of a minimum of two values; 50 nM CPS1, 10 μM ATP, 0.2 mM NAG, 60 min at room temperature; read-out: ADPGlo IC50
pIC50: −log10 of the molar value.

COMPOUND: COc1ccc(C(=O)N2C[C@@H](C)N(C(=O)c3ccc(-c4nnn[nH]4)cc3)[C@H](C)C2)c(F)c1
pIC50: 4.35
//
COMPOUND: COc1ccc(C(=O)N2[C@H](C)CN(C(=O)c3cc(F)c(OC)cc3F)C[C@H]2C)c(F)c1
pIC50: 6.15
//
COMPOUND: COc1ccc(C(=O)N2C[C@@H](C)N(C(=O)c3ccc(CCO)cc3)[C@H](C)C2)c(F)c1
pIC50: 4.97
//
COMPOUND: COc1ccc(C(=O)N2C[C@@H](C)N(C(=O)c3ccc4c(c3)CCCO4)[C@H](C)C2)c(F)c1
pIC50: 4.80
//
COMPOUND: COc1ccc(C(=O)N2C[C@@H](C)N(C(=O)c3ccc(OC)cc3)[C@H](C)C2)cc1 [Compound 105]
pIC50: 5.50
//
COMPOUND: COc1ccc(C(=O)N2[C@H](C)CN(C(=O)c3cnc4cc[nH]c4c3)C[C@H]2C)c(F)c1
pIC50: 5.60
//
COMPOUND: COc1ccc(OC)c2[nH]c(C(=O)N3CCN(C(=O)c4ccc5cc[nH]c5c4)CC3)cc12
pIC50: 5.67
